- ASSAY REMARKS: BET inhibitor-based combinations targeting novel dependencies in MECOM-rearranged (r) AML: AML-191 cell line (AID 2202236; also: nearly all actives have a fitted effect of over 35% in size)
- SETTINGS: AML-191 viability, CellTiter-Glo luminescence, 48 h; series mostly up to 46 µM
Inconclusive results are not listed. Active and inactive are the calls of the source. Calls follow the shape of the dose curve; as a rule, active = well fitted inhibition curve with a large enough effect; inconclusive = small, poorly fitted or top-dose-only effect; inactive = flat fitted curve, though single readings scatter.
A correct response names exactly one class from class 1 = active, class 0 = inactive

O=C(O)CNC(=O)c1c(O)c2ccccc2n(Cc2ccccc2)c1=O | class 0

For this compound, state the assay outcome: Cc1ccccc1-n1c(Cn2cnc3c(N)ncnc32)nc2cccc(C)c2c1=O
class 0

For this compound, state the assay outcome: CC(=O)Nc1ccc(OC[C@](C)(O)C(=O)Nc2ccc([N+](=O)[O-])c(C(F)(F)F)c2)cc1
class 0

For this compound, state the assay outcome: Cn1c(CCCC(=O)O)nc2cc(N(CCCl)CCCl)ccc21
class 1

For this compound, state the assay outcome: Cn1c(CCCCCCC(=O)NO)nc2cc(N(CCCl)CCCl)ccc21
class 1

For this compound, state the assay outcome: C=C(C)[C@H]1Cc2c(ccc3c2O[C@@H]2COc4cc(OC)c(OC)cc4[C@@H]2C3=O)O1
class 1

For this compound, state the assay outcome: O=C1CC[C@@]2(O)[C@H]3Cc4ccc(O)c5c4[C@@]2(CCN3CC2CC2)[C@H]1O5
class 0

For this compound, state the assay outcome: COc1ccc(N(C(=O)Oc2c(C)cccc2C)c2ccnc(Nc3ccc(N4CCN(C)CC4)cc3)n2)c(OC)c1
class 1

For this compound, state the assay outcome: O=c1[nH]c2ccc(Cl)cc2c(N[C@@H]2CN3CCC2CC3)c1-c1nc2ccccc2[nH]1
class 1

----------
- TESTED TARGET: Aldehyde dehydrogenase 1A1 (Homo sapiens) (UniProt P00352)
- ASSAY REMARKS: qHTS for Inhibitors of the Aldehyde Dehydrogenase Family (ALDH1A1) Confirmatory screens (AID 2061316); also: nearly all actives have a fitted effect of over 65% in size
- SETTINGS: ALDH inhibition qHTS; series mostly up to 47.3 µM
Records with an inconclusive call do not appear. Activity calls are given as the source filed them. Calls follow the shape of the dose curve; as a rule, active = well fitted inhibition curve with a large enough effect; inconclusive = small, poorly fitted or top-dose-only effect; inactive = no such curve, though single readings can be large or run the other way.
A correct response names exactly one class from active, inactive

Solved cases (6 shown):
COC1=C[C@@H]2[C@@H]3Cc4ccc(OC)c(O)c4[C@]2(CCN3C)CC1=O | inactive
N#Cc1c(-c2cccc(-c3no[n+]([O-])c3C#N)c2)no[n+]1[O-] | active
C[C@@]1(C(=O)O)CC[C@]2(C)CC[C@]3(C)C4=CC(=O)c5cc(O)c(O)cc5[C@]4(C)CC[C@@]3(C)[C@@H]2C1 | inactive
CC(=O)O[C@H]1CC[C@@]2(CI)C(=CC[C@@H]3[C@@H]2CC[C@]2(C)C(=O)CC[C@@H]32)C1 | active
Cc1ncc(CNC(=O)N(CCCl)N=O)c(N)n1 | inactive
CCOc1ccc(CCNC(=O)c2cc3ccncc3n2Cc2cccc(C)n2)cc1OCC | inactive

For this compound, state the assay outcome: CC1=C(C)C(=O)C(CC[C@](C)(O)CCC[C@H](C)CCC[C@H](C)CCCC(C)C)=C(C)C1=O
inactive

For this compound, state the assay outcome: [Cl][Pt].[NH2-].[NH2-].c1ccncc1
active

For this compound, state the assay outcome: N#Cc1ccc(N2CCN(C(=O)COc3ccc4[nH]cc(CCN)c4c3)CC2)cc1
inactive

For this compound, state the assay outcome: C[C@]12Cc3cn4c(nc3C=C1CCC1C2CC[C@@]2(C)[C@H]1CC[C@@]2(O)C#N)nc1ccccc14 (some centres undefined)
active

For this compound, state the assay outcome: CCOC(=O)c1ncn2c1[C@@H]1CCCN1C(=O)c1cc(OC)ccc1-2
inactive

For this compound, state the assay outcome: COc1ccc2c(C(=O)c3ccc(Cl)cc3)c(C)n(CC(=O)O)c2c1
inactive

For this compound, state the assay outcome: N#C/C(=C\c1ccc(O)c(O)c1)C(N)=S
active

For this compound, state the assay outcome: O=[N+]([O-])/C=C/c1ccc2c(c1)OCO2
active

----------
- ASSAY REMARKS: BET inhibitor-based combinations targeting novel dependencies in MECOM-rearranged (r) AML: AML-191 cell line (AID 2202236)
- SETTINGS: AML-191 viability, CellTiter-Glo luminescence, 48 h; series mostly up to 46 µM
Records with an inconclusive call do not appear. Active and inactive are the calls of the source. The call rests on the fitted dose curve; in most records, active means well fitted inhibition curve with a large enough effect; inconclusive means small, poorly fitted or top-dose-only effect; inactive means flat fitted curve, though single readings scatter.
MEASUREMENT LABEL: Potency

C/C(=C\c1csc(C)n1)[C@@H]1C[C@@H]2O[C@@H]2CCC[C@H](C)[C@H](O)[C@@H](C)C(=O)C(C)(C)[C@@H](O)CC(=O)O1 | 23.5 nM (active)
N=c1c2c(-c3ccccc3)c(-c3ccccc3)n(Cc3ccccc3)c2ncn1C1CCC(O)CC1 (centres undefined) | 2630 nM (active)
CCOC(=O)c1c(C(C#N)=CN)c2ccc(Cl)c(Cl)c2n1C | inactive
C[C@]12CC[C@H]3[C@@H](CC[C@@]45O[C@@H]4C(O)=C(C#N)C[C@]35C)[C@@H]1CC[C@@H]2O | inactive

----------
- ASSAY REMARKS: BET inhibitor-based combinations targeting novel dependencies in MECOM-rearranged (r) AML: MV-4-11 cell line (AID 2202233); also: nearly all actives have a fitted effect of over 45% in size
- SETTINGS: MV-4-11 AML viability, CellTiter-Glo luminescence, 48 h; series mostly up to 46 µM
Records with an inconclusive call do not appear. Activity calls are given as the source filed them. Calls follow the shape of the dose curve; as a rule, active = well fitted inhibition curve with a large enough effect; inconclusive = small, poorly fitted or top-dose-only effect; inactive = no such curve, though single readings can be large or run the other way.
A correct response names exactly one class from t (active), f (inactive)

Solved cases (4 shown):
CC(C)(O)C(=O)Nc1ccc([N+](=O)[O-])c(C(F)(F)F)c1 | t
CCCCCCC(C)(C)c1cc(O)c2c(c1)OC(C)(C)C1CC=C(CO)C[C@H]21 (stereo not given in full) | t
Cc1sc2c(c1C)C(c1ccc(Cl)cc1)=N[C@@H](CC(=O)OC(C)(C)C)c1nnc(C)n1-2 | t
CN1[C@H]2CC(O)C[C@H]1[C@H]1O[C@H]12 (stereo not given in full) | f

For this compound, state the assay outcome: NC(=O)[C@@H](CC1CC1)[C@@H](CCC(F)(F)F)C(=O)N[C@H]1N=C(c2ccccc2)c2cccc(F)c2NC1=O
f

----------
- ASSAY REMARKS: BET inhibitor-based combinations targeting novel dependencies in MECOM-rearranged (r) AML: AML-194 cell line (AID 2202237; also: nearly all actives have a fitted effect of over 40% in size)
- SETTINGS: AML-194 (MECOM-r AML) viability, CellTiter-Glo, 48 h; series mostly up to 46 µM
Records with an inconclusive call do not appear. Calls of active or inactive are those of the source. The call rests on the fitted dose curve; in most records, active means well fitted inhibition curve with a large enough effect; inconclusive means small, poorly fitted or top-dose-only effect; inactive means flat fitted curve, though single readings scatter.
A correct response names exactly one class from 1 = active, 0 = inactive

Solved cases (8 shown):
O=C(O)C(=O)c1cn(Cc2ccccc2)c2ccc(-c3ccc(OC(F)(F)F)cc3)cc12 | 0
CCNC(=O)CC1N=C(c2ccc(Cl)cc2)c2cc(OC)ccc2-n2c(C)nnc21 (stereo not drawn) | 0
C/C(O)=C(\C#N)C(=O)Nc1cc(Br)ccc1Br | 0
CN[C@@H]1C[C@H]2O[C@@](C)([C@@H]1OC)n1c3ccccc3c3c4c(c5c6ccccc6n2c5c31)C(=O)NC4 | 1
O=C(N[C@H]1CN2CCC1CC2)c1ccc(Cl)cc1 | 0
CN(C)[C@@H]1C(=O)C(C(N)=O)=C(O)[C@@]2(O)C(=O)C3=C(O)c4c(O)cccc4[C@@](C)(O)[C@H]3[C@H](O)[C@@H]12 | 0
C/C(=C\c1csc(C)n1)[C@@H]1C[C@@H]2O[C@]2(C)CCC[C@H](C)[C@H](O)[C@@H](C)C(=O)C(C)(C)[C@@H](O)CC(=O)O1 | 1
Cn1c(COP(=O)(NCCBr)NCCBr)cnc1[N+](=O)[O-] | 0

For this compound, state the assay outcome: C[C@]12Cc3cn[nH]c3C[C@@H]1CC[C@@H]1[C@@H]2CC[C@@]2(C)[C@H]1CC[C@]2(C)O
0

For this compound, state the assay outcome: C[C@]12CC[C@@H]3c4ccc(OC(=O)N(CCCl)CCCl)cc4CC[C@H]3[C@@H]1CC[C@@H]2OP(=O)(O)O
0

For this compound, state the assay outcome: CC1(C)C(=O)N(c2ccc(C#N)c(C(F)(F)F)c2)C(=S)N1Cc1ccc(-c2cn[nH]n2)cc1
1

For this compound, state the assay outcome: CNCC(O)c1ccc(O)cc1 (stereo not drawn)
0

For this compound, state the assay outcome: NN=C(N)N
0

For this compound, state the assay outcome: C[C@]12CC[C@H]3[C@@H](CC[C@@]45O[C@@H]4C(O)=C(C#N)C[C@]35C)[C@@H]1CC[C@@H]2O
0

For this compound, state the assay outcome: COC1=C[C@@H]2[C@@H]3Cc4ccc(OC)c(O)c4[C@]2(CCN3C)CC1=O
0

For this compound, state the assay outcome: CSCC[C@@H](NC(=O)[C@@H](Cc1ccccc1)NC(=O)CNC(=O)CNC(=O)[C@@H](N)Cc1ccc(O)cc1)C(=O)O
0

For this compound, state the assay outcome: O=C(Oc1ccc([N+](=O)[O-])cc1)N1CCC(C(O)(c2ccc3c(c2)OCO3)c2ccc3c(c2)OCO3)CC1
0

For this compound, state the assay outcome: C#C[C@]1(O)C=C[C@H]2[C@@H]3CCC4=CC(=O)CC[C@@H]4[C@H]3CC[C@@]21CC
0
